Source: patent US9597310B2

# target-entity: human GPR40 receptor (Homo sapiens (Human))
# Sequence (O14842 whole entry): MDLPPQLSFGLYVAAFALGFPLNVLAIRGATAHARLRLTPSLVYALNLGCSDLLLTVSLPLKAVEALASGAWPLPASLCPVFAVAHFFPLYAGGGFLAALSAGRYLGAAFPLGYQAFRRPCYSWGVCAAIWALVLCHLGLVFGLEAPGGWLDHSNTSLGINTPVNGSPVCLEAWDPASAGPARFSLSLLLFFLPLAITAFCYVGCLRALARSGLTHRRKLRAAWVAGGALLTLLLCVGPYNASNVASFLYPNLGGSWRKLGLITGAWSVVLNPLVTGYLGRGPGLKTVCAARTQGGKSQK
# method-notes: IP1 accumulation measurements using the IPOne assay system
# condition-context: 1321N1 cells stably expressing human GPR40 receptor, 1 h stimulation
Threshold check on EC50: strictly below 30 nM is Condition met; on or above 30 nM is Condition not met.

Illustrative cases are given below, each with its answer.
CC(C)(O)CCOc1ccc(F)c(Oc2ccc(F)c3c2CC[C@H]3Oc2ccc3c(c2)OC[C@H]3CC(=O)O)c1 [Example 45] = Condition met
O=C(O)C[C@@H]1COc2cc(O[C@@H]3CCc4c(Oc5ccc(OC6CCOCC6)cc5F)ccc(F)c43)ccc21 [Example 50] = Condition met
Cn1nnnc1-c1ccc(Oc2ccc(F)c3c2CC[C@H]3Oc2ccc3c(c2)OC[C@H]3CC(=O)O)cc1 [Example 14] = Condition met
O=C(O)C[C@@H]1COc2cc(O[C@@H]3CCc4c(Oc5ccc(-c6nnn[nH]6)cc5)ccc(F)c43)ccc21 [Example 13] = Condition not met
CC(C)(O)CCOc1cc(F)c(Oc2ccc(F)c3c2CC[C@H]3Oc2ccc3c(c2)OC[C@H]3CC(=O)O)cc1F [Example 34] = Condition met

We next turn to a different compound, shown below.
Task: Hello, I'm reviewing records and need to know if EC50 of O=C(O)C[C@@H]1COc2cc(O[C@@H]3CCc4c(Oc5ccc(O[C@H]6CCOC6)cn5)ccc(F)c43)ccc21 [Example 18] is below 30 nM. Could you check?
Output: Condition not met

* * *

Provide the reported pEC50 of each item.
# target-entity: human GPR40 receptor (Homo sapiens (Human))
# method-notes: IP1 accumulation measurements using the IPOne assay system
# condition-context: 1321N1 cells stably expressing human GPR40 receptor, 1 h stimulation
Numbers only, as −log10 of the molar value.

# example entries with known answers
CC(C)(O)CCc1ccc(Oc2ccc(F)c3c2CC[C@H]3Oc2ccc3c(c2)OC[C@H]3CC(=O)O)c(C#N)c1 = 7.92
Cn1nccc1-c1ccc(Oc2ccc(F)c3c2CC[C@H]3Oc2ccc3c(c2)OC[C@H]3CC(=O)O)c(C#N)c1 = 8.05

Give pEC50 for all compounds that follow.
1. Cn1ccnc1-c1ccc(Oc2ccc(F)c3c2CC[C@H]3Oc2ccc3c(c2)OC[C@H]3CC(=O)O)cc1
2. CN(C)C(=O)c1ccc(Oc2ccc(F)c3c2CC[C@H]3Oc2ccc3c(c2)OC[C@H]3CC(=O)O)cc1

Output:
1: 7.39; 2: 7.66

* * *

# method-notes: Chemical stability (degradation kinetics) in acidic aqueous media, HPLC recovery rate
# Assay type: physicochemical
# condition-context: pH value of ca. 1.2, acetonitrile/0.1 M aqueous HCl (2:3), 37° C.
Can you tell me Recovery rate after 2 h for the items I'm about to list?

Take a look at these entries with their results.
CCNC(=O)c1ccc(Oc2ccc(F)c3c2CC[C@H]3Oc2ccc3c(c2)OC[C@H]3CC(=O)O)cc1 [Example 12] = >99%
CC(C)(O)COc1ccc(Oc2ccc(F)c3c2CC[C@H]3Oc2ccc3c(c2)OC[C@H]3CC(=O)O)cc1 [Example 3] = 97.5%
COCCOc1ccc(Oc2ccc(F)c3c2CC[C@H]3Oc2ccc3c(c2)OC[C@H]3CC(=O)O)cc1 [Example 1] = 97.5%
CC(C)(O)CCOc1ccc(Oc2ccc(F)c3c2CC[C@H]3Oc2ccc3c(c2)OC[C@H]3CC(=O)O)cc1 [Example 2] = >98%

List reported Recovery rate after 2 h for each of these compounds:
1. CC(=O)Nc1cccc(Oc2ccc(F)c3c2CC[C@H]3Oc2ccc3c(c2)OC[C@H]3CC(=O)O)c1 [Example 6]
2. O=C(O)C[C@@H]1COc2cc(O[C@@H]3CCc4c(Oc5ccc(C(=O)N6CCCC6)cc5)ccc(F)c43)ccc21 [Example 9]
3. O=C(O)C[C@@H]1COc2cc(OC3CCc4ccccc43)ccc21 (stereo partly drawn) [XX, reference compound]

Output:
>98%
>99%
<5%

// input: 2 compounds below; output: Recovery rate after 2 h for each
1. CC(C)c1cccc2c1CC[C@H]2Oc1ccc2c(c1)OC[C@H]2CC(=O)O [XXI, reference compound]
2. O=C(O)C[C@@H]1COc2cc(O[C@@H]3CCc4c(Oc5ccc6c(c5)CCO6)ccc(F)c43)ccc21 [Example 11]

Output:
["<5%", "96.5%"]

* * *

# target-entity: human GPR40 receptor (Homo sapiens (Human))
# method-notes: IP1 accumulation measurements using the IPOne assay system
# condition-context: 1321N1 cells stably expressing human GPR40 receptor, 1 h stimulation
endpoint-name: EC50 (nM)
Answers are plain numbers, in nM.

N#CCCc1ccc(Oc2ccc(F)c3c2CC[C@H]3Oc2ccc3c(c2)OC[C@H]3CC(=O)O)cc1 = 13

Would you be so kind as to report EC50 for each listed record?
1. CC(C)(O)CCn1ncc2cc(Oc3ccc(F)c4c3CC[C@H]4Oc3ccc4c(c3)OC[C@H]4CC(=O)O)ccc21
2. Cc1ncc(-c2ccc(Oc3ccc(F)c4c3CC[C@H]4Oc3ccc4c(c3)OC[C@H]4CC(=O)O)cc2)s1
3. Cn1nnc(-c2ccc(Oc3ccc(F)c4c3CC[C@H]4Oc3ccc4c(c3)OC[C@H]4CC(=O)O)cc2)n1
4. O=C(O)C[C@@H]1COc2cc(O[C@@H]3CCc4c(Oc5ccc(CC6CCOCC6)cc5)ccc(F)c43)ccc21
5. CC(C)(O)COc1ccc(Oc2ccc(F)c3c2CC[C@H]3Oc2ccc3c(c2)OC[C@H]3CC(=O)O)cc1
6. CC(C)(O)CCCc1ccc(Oc2ccc(F)c3c2CC[C@H]3Oc2ccc3c(c2)OC[C@H]3CC(=O)O)cc1

Output:
[13, 5, 3, 5, 13, 20]

Batch of 4 compounds: report EC50 for each.
1. CC(C)(O)CCOc1ccc(Oc2ccc(F)c3c2CC[C@H]3Oc2ccc3c(c2)OC[C@H]3CC(=O)O)cc1C#N
2. CS(=O)(=O)CCCOc1ccc(Oc2ccc(F)c3c2CC[C@H]3Oc2ccc3c(c2)OC[C@H]3CC(=O)O)cc1
3. CC(=O)Nc1ccc(Oc2ccc(F)c3c2CC[C@H]3Oc2ccc3c(c2)OC[C@H]3CC(=O)O)cc1
4. COCCOc1ccc(Oc2ccc(F)c3c2CC[C@H]3Oc2ccc3c(c2)OC[C@H]3CC(=O)O)cc1

Output:
7
15
34
7

* * *

# target-entity: human GPR40 receptor (Homo sapiens (Human))
# method-notes: IP1 accumulation measurements using the IPOne assay system
# condition-context: 1321N1 cells stably expressing human GPR40 receptor, 1 h stimulation
Each record is given t if its reported EC50 is strictly below 9 nM. Records at or above 9 nM are given f.

Study these solved cases before continuing.
O=C(O)C[C@@H]1COc2cc(O[C@@H]3CCc4c(Oc5cc(OC6CCOCC6)ccc5F)ccc(F)c43)ccc21 = f
CC(C)(O)COc1cc(Oc2ccc(F)c3c2CC[C@H]3Oc2ccc3c(c2)OC[C@H]3CC(=O)O)ccc1C#N = f
O=C(O)C[C@@H]1COc2cc(O[C@@H]3CCc4c(Oc5ccc6c(c5)OCCO6)ccc(F)c43)ccc21 = t
CC(C)(O)CCOc1ccc(Oc2ccc(F)c3c2CC[C@H]3Oc2ccc3c(c2)OC[C@H]3CC(=O)O)c(F)c1 = t
CC(C)(O)CCOc1ccc(C#N)c(Oc2ccc(F)c3c2CC[C@H]3Oc2ccc3c(c2)OC[C@H]3CC(=O)O)c1 = f

Task: Quick check: does CC(C)(O)Cn1cc(-c2cc(F)c(Oc3ccc(F)c4c3CC[C@H]4Oc3ccc4c(c3)OC[C@H]4CC(=O)O)c(F)c2)cn1 have EC50 under 9 nM?
Output: f

* * *

# target-entity: human GPR40 receptor (Homo sapiens (Human))
# method-notes: IP1 accumulation measurements using the IPOne assay system
# condition-context: 1321N1 cells stably expressing human GPR40 receptor, 1 h stimulation
Define the label as Fulfilled when EC50 is strictly less than 7 nM and as Not fulfilled in all remaining cases.

O=C(O)C[C@@H]1COc2cc(O[C@@H]3CCc4c(Oc5ccc(OCC6(O)CCOCC6)c(F)c5)ccc(F)c43)ccc21 [Example 37] = Not fulfilled
CC(C)(O)CCOc1ccc(Oc2ccc(F)c3c2CC[C@H]3Oc2ccc3c(c2)OC[C@H]3CC(=O)O)cc1 [Example 2] = Fulfilled
CC(C)(O)CCn1ncc2ccc(Oc3ccc(F)c4c3CC[C@H]4Oc3ccc4c(c3)OC[C@H]4CC(=O)O)cc21 [Example 36] = Not fulfilled
Cc1noc(C)c1-c1ccc(Oc2ccc(F)c3c2CC[C@H]3Oc2ccc3c(c2)OC[C@H]3CC(=O)O)c(C#N)c1 [Example 49] = Not fulfilled

Task: Does the reported EC50 of the following molecule sit strictly below 7 nM? N#Cc1ccc(Oc2ccc(F)c3c2CC[C@H]3Oc2ccc3c(c2)OC[C@H]3CC(=O)O)cc1OC1CCOCC1 [Example 51]
Output: Not fulfilled

Task: Would you kindly verify if EC50 of O=C(O)C[C@@H]1COc2cc(O[C@@H]3CCc4c(Oc5ccc6c(c5)OCO6)ccc(F)c43)ccc21 [Example 25] is strictly less than 7 nM?
Output: Fulfilled
